method summary: Determination of the hygroscopicity (weight increase in a stability chamber)
Assay type: physicochemical
test parameters: Table 6; time 48 h; 25° C., 65% relative air humidity
experimental readout: Mean mass increase

INSERT INTO assay_data (molecule, value_observed) VALUES
  ('O=C([O-])CN(CCN(CC(=O)[O-])CC(=O)[O-])CCN(CC(=O)[O-])CC(=O)[O-].[Na+].[Na+].[Na+].[Zn+2] [Form I]', '6.81%'),
  ('O=C([O-])CN(CCN(CC(=O)[O-])CC(=O)[O-])CCN(CC(=O)[O-])CC(=O)[O-].[Na+].[Na+].[Na+].[Zn+2] [Form II, B]', '5.25%'),
  ('O=C([O-])CN(CCN(CC(=O)[O-])CC(=O)[O-])CCN(CC(=O)[O-])CC(=O)[O-].[Na+].[Na+].[Na+].[Zn+2] [Amorph Il]', '12.02%'),
  ('O=C([O-])CN(CCN(CC(=O)[O-])CC(=O)[O-])CCN(CC(=O)[O-])CC(=O)[O-].[Na+].[Na+].[Na+].[Zn+2] [Amorph I]', '11.92%'),
  ('O=C([O-])CN(CCN(CC(=O)[O-])CC(=O)[O-])CCN(CC(=O)[O-])CC(=O)[O-].[Na+].[Na+].[Na+].[Zn+2] [Form II, A]', '5.07%');

Origin of measurements: patent US9447120B2
